# Tested on: OST
# Measurement Protocol: Cytotoxicity against human thymidine kinase deficient OST cells assessed as inhibition of cell proliferation after 4 days by coulter counter assay
# Format: cell-based
# Recorded Conditions: 96 h
Each entry below lists one item and its recorded IC50 value.
API: value field is a number in µM; no unit string.

Examples with their reported IC50 follow.
C=C1OC(=O)C(CCCCCC)=C1Br	2
CCC1=C(Br)/C(=C/Br)OC1=O	6.3

Request: // returns reported IC50 for input CCCCCCC1=C(Br)C(=O)OC1=O [BROMOHEXYLMALEIC ANHYDRIDE]
Result: 43

====

# System: Salmonella typhimurium
# Measurement Protocol: Antimicrobial activity against Salmonella Typhimurium ATCC 14028 assessed as effect on planktonic growth at 250 uM after 36 hrs by microtiter plate assay
# Assay type: functional, organism-based
# Recorded Conditions: Salmonella enterica subsp. enterica serovar Typhimurium
Active and inactive are the calls of the source. The rule behind the calls is not given here.
Hi! Could you answer with just one of these? active, inactive

CC(=O)OC(C)C1=CC(=C(Br)Br)OC1=O (stereo not given)	inactive
CC(=O)OC(C)C1=C(Br)C(=C(Br)Br)OC1=O (stereo not given)	active

Consider the record given below.
Request: # lookup: test call for CCCCC1=C(Br)/C(=C/Br)OC1=O
Result: active

====

Each entry below lists one item and its recorded GI50 value.
# System: Vibrio harveyi
# Measurement Protocol: Antimicrobial activity against wild type Vibrio harveyi BB120
# Type: functional
API: value field is a number in µM; no unit string.

CCCCCCC1=C(Br)/C(=C/Br)OC1=O	34

Let's switch to this molecule now.
Request: // returns reported GI50 for input CCCC(OC(C)=O)C1=C(Br)/C(=C/Br)OC1=O (configuration not stated)
Result: 147

====

# Test system: Salmonella typhimurium
# Measurement Protocol: Antimicrobial activity against Salmonella Typhimurium ATCC 14028 assessed as effect on planktonic growth at 10 uM after 36 hrs by microtiter plate assay
# Assay type: functional, organism-based
# Recorded Conditions: Salmonella enterica subsp. enterica serovar Typhimurium
Activity calls are given as the source filed them. The calls are words filed in the database; no cut-off is given here.
Hi! Could you answer with just one of these? 1.0 for active, 0.0 for inactive

Worked examples follow.
C=C1OC(=O)C(CCCCCC)=C1Br	0.0
CCC1=C(Br)C(=C(Br)Br)OC1=O	0.0
CCC1=CC(=C(Br)Br)OC1=O	0.0
CCCCC1=C(Br)/C(=C/Br)OC1=O	0.0
CCCCCCC1=C(Br)/C(=C/Br)OC1=O	0.0

Request: # lookup: test call for CC(Br)C1=C(Br)C(=C(Br)Br)OC1=O (stereo not given)
Result: 0.0

Request: # lookup: test call for CC(=O)OC(C)C1=CC(=C(Br)Br)OC1=O (stereo not given)
Result: 0.0

Request: # lookup: test call for CC(Br)C1=C(Br)/C(=C/Br)OC1=O (stereo not given)
Result: 0.0

Request: # lookup: test call for CCCC(Br)C1=C(Br)/C(=C/Br)OC1=O (stereo not given)
Result: 0.0

Request: # lookup: test call for CC(Br)C1=CC(=C(Br)Br)OC1=O (stereo not given)
Result: 1.0

Request: # lookup: test call for CC(=O)OC(C)C1=C(Br)C(=C(Br)Br)OC1=O (stereo not given)
Result: 0.0

Request: # lookup: test call for CCCCCC(Br)C1=C(Br)/C(=C/Br)OC1=O (stereo not given)
Result: 0.0

Request: # lookup: test call for CCC1=C(Br)/C(=C/Br)OC1=O
Result: 0.0

Request: # lookup: test call for CCCC(Br)C1=CC(=C(Br)Br)OC1=O (stereo not given)
Result: 0.0

Request: # lookup: test call for CCCC(OC(C)=O)C1=C(Br)/C(=C/Br)OC1=O (stereo not given)
Result: 0.0

====

Each entry below lists one item and its recorded pIC50 value.
# Tested on: FM3A
# Measurement Protocol: Cytotoxicity against mouse FM3A cells assessed as inhibition of cell proliferation after 2 days by coulter counter assay
# Type: cell-based
# Recorded Conditions: 48 h
Scale: pIC50 equals -log10([C]), with [C] in mol/L.

C=C1OC(=O)C(CCCCCC)=C1Br	4.80

Request: // returns reported pIC50 for input CCCCCCC1=C(Br)C(=O)OC1=O [BROMOHEXYLMALEIC ANHYDRIDE]
Result: 3.61

====

# Tested on: Salmonella typhimurium
# Measurement Protocol: Antimicrobial activity against Salmonella Typhimurium ATCC 14028 assessed as inhibition of biofilm formation after 48 hrs using crystal violet staining by microtiter plate assay
# Type: functional, organism-based, Salmonella enterica subsp. enterica serovar Typhimurium
# Recorded Conditions: Salmonella enterica, ATCC 14028, 48 h
pIC50: −log10 of the molar value.
The label depends only on pIC50: True if it is at least 4, False if it is smaller.

CC(Br)C1=C(Br)/C(=C/Br)OC1=O (stereo not given)	True
CCCCC1=C(Br)/C(=C/Br)OC1=O	True
C=C1OC(=O)C(CCCCCC)=C1Br	True
CCC1=C(Br)C(=C(Br)Br)OC1=O	True

Request: Entry CCCC(Br)C1=C(Br)/C(=C/Br)OC1=O (stereo not given) : is its pIC50 no less than 4?
Result: True

Request: Entry CCCCCCC1=C/C(=C/Br)OC1=O : is its pIC50 no less than 4?
Result: False

Request: Entry CCCC(Br)C1=CC(=C(Br)Br)OC1=O (stereo not given) : is its pIC50 no less than 4?
Result: True

Request: Entry CC(Br)C1=C(Br)C(=C(Br)Br)OC1=O (stereo not given) : is its pIC50 no less than 4?
Result: True

Request: Entry CCC1=C(Br)/C(=C/Br)OC1=O : is its pIC50 no less than 4?
Result: True

Request: Entry CCCCCCC1=C(Br)/C(=C/Br)OC1=O : is its pIC50 no less than 4?
Result: True

Request: Entry CC(=O)OC(C)C1=CC(=C(Br)Br)OC1=O (stereo not given) : is its pIC50 no less than 4?
Result: False

Request: Entry CCCCC1=CC(=C(Br)Br)OC1=O : is its pIC50 no less than 4?
Result: False

====

# Test system: Vibrio harveyi
# Measurement Protocol: Antimicrobial activity against wild type Vibrio harveyi BB120
# Type: functional
Each entry below lists one item and its recorded log10(GI50) value.
Form field - Quantity: GI50; Unit: µM; Scale: log10

CCCCCCCCC1=C(Br)/C(=C/Br)OC1=O	2.43
CC(Br)C1=CC(=C(Br)Br)OC1=O (configuration not stated)	0.49
CC(Br)C1=C(Br)/C(=C/Br)OC1=O (configuration not stated)	1.21
CCCC(Br)C1=CC(=C(Br)Br)OC1=O (configuration not stated)	0.03
O=C1C=CC(=C(Br)Br)O1	1.41
CCCCC1=C(Br)/C(=C/Br)OC1=O	1.81

Let's switch to this compound now.
Request: // returns reported log10(GI50) for input CC(Br)C1=C(Br)C(=C(Br)Br)OC1=O (configuration not stated)
Result: 0.99

====

# Tested on: Salmonella typhimurium
# Measurement Protocol: Antimicrobial activity against Salmonella Typhimurium ATCC 14028 assessed as effect on planktonic growth at 250 uM after 36 hrs by microtiter plate assay
# Format: functional, organism-based
# Recorded Conditions: Salmonella enterica subsp. enterica serovar Typhimurium
Calls of active or inactive are those of the source. The calls are words filed in the database; no cut-off is given here.
Hi! Could you answer with just one of these? active, inactive

Worked examples follow.
CCCCCCC1=C(Br)C(=O)OC1=O [BROMOHEXYLMALEIC ANHYDRIDE]	inactive
CCCC(Br)C1=CC(=C(Br)Br)OC1=O (configuration not stated)	active
C=C1OC(=O)C(CCCCCC)=C1Br	active
CC(Br)C1=C(Br)C(=C(Br)Br)OC1=O (configuration not stated)	inactive
CC(Br)C1=CC(=C(Br)Br)OC1=O (configuration not stated)	active

Consider the record given below.
Request: # lookup: test call for CCCCCCC1=C(Br)/C(=C/Br)OC1=O
Result: active

====

# Test system: Vibrio harveyi
# Measurement Protocol: Antimicrobial activity against wild type Vibrio harveyi BB120
# Format: functional
Each entry below lists one item and its recorded GI50 value.
API: value field is a number in µM; no unit string.

Examples with their reported GI50 follow.
CCC1=CC(=C(Br)Br)OC1=O	325
O=C1C=C/C(=C/Br)O1	15.7
CCC1=C(Br)C(=C(Br)Br)OC1=O	2.26
CCCCCCC1=C(Br)C(=O)OC1=O [BROMOHEXYLMALEIC ANHYDRIDE]	208
CCCCCC(Br)C1=C(Br)/C(=C/Br)OC1=O (stereo not given)	7.27
O=C1C=C(Br)/C(=C/Br)O1	3.16
CCCCC1=C(Br)C(=C(Br)Br)OC1=O	20.5
C=C1OC(=O)C(CCCCCC)=C1Br	36.3

Request: State its GI50 on Vibrio harveyi: CCCCCCC1=CC(=O)OC1=O
Result: 640

Request: State its GI50 on Vibrio harveyi: CCCC(Br)C1=C(Br)/C(=C/Br)OC1=O (stereo not given)
Result: 4.04

Request: State its GI50 on Vibrio harveyi: CCCCCCC1=CC(=C(Br)Br)OC1=O
Result: 197

Request: State its GI50 on Vibrio harveyi: CCCCC1=CC(=C(Br)Br)OC1=O
Result: 141

Request: State its GI50 on Vibrio harveyi: CC(=O)OC(C)C1=C(Br)C(=C(Br)Br)OC1=O (stereo not given)
Result: 25.4

Request: State its GI50 on Vibrio harveyi: CCC1=C(Br)/C(=C/Br)OC1=O
Result: 10.8

Every entry's value here was drawn from ChEMBL document CHEMBL1250426.
